The measurements presented in this section are drawn from ChEMBL document CHEMBL1148440.

What Ki was measured for each of the following?
Experimental Target: Serotonin 3 (5-HT3) receptor (Rattus norvegicus, UniProt P35563+Q9JJ16)
Sequence (P35563 whole entry): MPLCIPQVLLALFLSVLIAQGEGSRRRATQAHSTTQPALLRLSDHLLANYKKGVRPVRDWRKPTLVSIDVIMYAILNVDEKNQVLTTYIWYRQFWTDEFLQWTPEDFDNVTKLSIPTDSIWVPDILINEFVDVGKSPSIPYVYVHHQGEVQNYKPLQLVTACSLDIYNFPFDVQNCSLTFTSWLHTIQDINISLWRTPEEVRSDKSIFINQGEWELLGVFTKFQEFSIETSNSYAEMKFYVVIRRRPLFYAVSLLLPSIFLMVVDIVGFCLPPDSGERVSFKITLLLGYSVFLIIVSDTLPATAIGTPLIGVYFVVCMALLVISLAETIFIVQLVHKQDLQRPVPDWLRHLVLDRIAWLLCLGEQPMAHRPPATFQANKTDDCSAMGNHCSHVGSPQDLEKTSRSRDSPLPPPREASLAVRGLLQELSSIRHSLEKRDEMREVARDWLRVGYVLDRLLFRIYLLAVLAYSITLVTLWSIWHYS
Sequence (Q9JJ16 whole entry): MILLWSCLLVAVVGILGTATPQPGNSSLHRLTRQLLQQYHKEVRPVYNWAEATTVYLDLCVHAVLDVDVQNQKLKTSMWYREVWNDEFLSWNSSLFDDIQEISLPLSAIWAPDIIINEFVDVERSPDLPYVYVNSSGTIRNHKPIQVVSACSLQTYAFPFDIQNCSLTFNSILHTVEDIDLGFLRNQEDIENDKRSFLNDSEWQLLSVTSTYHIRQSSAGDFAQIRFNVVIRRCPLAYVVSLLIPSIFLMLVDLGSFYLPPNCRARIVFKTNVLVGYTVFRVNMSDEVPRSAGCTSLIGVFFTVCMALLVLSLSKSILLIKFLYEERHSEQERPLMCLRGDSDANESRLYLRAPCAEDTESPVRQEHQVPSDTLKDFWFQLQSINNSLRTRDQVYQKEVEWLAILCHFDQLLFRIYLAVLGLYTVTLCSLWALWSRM
Assay Info: In vitro binding affinity at serotonin 5-hydroxytryptamine 3 receptor in rat cortex by [3H]granisetron displacement.

In: Notebook entry, Serotonin 3 (5-HT3) receptor (Rattus norvegicus, UniProt P35563+Q9JJ16) assay: Ki of Oc1ccc2c(c1)CCCC2CCCN1CCN(C2CCCCC2)CC1 (stereo not drawn) = ?
Out: > 700 nM

In: Notebook entry, Serotonin 3 (5-HT3) receptor (Rattus norvegicus, UniProt P35563+Q9JJ16) assay: Ki of c1ccc2c(c1)CCCC2CCCCCN1CCN(C2CCCCC2)CC1 (stereo not drawn) = ?
Out: > 700 nM

In: Notebook entry, Serotonin 3 (5-HT3) receptor (Rattus norvegicus, UniProt P35563+Q9JJ16) assay: Ki of c1ccc2c(CCCCN3CCN(C4CCCCC4)CC3)cccc2c1 = ?
Out: > 700 nM

In: Notebook entry, Serotonin 3 (5-HT3) receptor (Rattus norvegicus, UniProt P35563+Q9JJ16) assay: Ki of COc1cccc2c1CCC[C@@H]2CCCN1CCN(C2CCCCC2)CC1 = ?
Out: > 700 nM

In: Notebook entry, Serotonin 3 (5-HT3) receptor (Rattus norvegicus, UniProt P35563+Q9JJ16) assay: Ki of COc1cccc2c1CCCC2CN1CCN(C2CCCCC2)CC1 (stereo not drawn) = ?
Out: > 700 nM

In: Notebook entry, Serotonin 3 (5-HT3) receptor (Rattus norvegicus, UniProt P35563+Q9JJ16) assay: Ki of COc1cccc2c1CCCC2CCCCN1CCN(C2CCCCC2)CC1 (stereo not drawn) = ?
Out: > 700 nM

In: Notebook entry, Serotonin 3 (5-HT3) receptor (Rattus norvegicus, UniProt P35563+Q9JJ16) assay: Ki of c1ccc2c(c1)CCCC2CCCN1CCN(C2CCCCC2)CC1 (stereo not drawn) = ?
Out: > 700 nM

In: Notebook entry, Serotonin 3 (5-HT3) receptor (Rattus norvegicus, UniProt P35563+Q9JJ16) assay: Ki of c1ccc2c(c1)CCCC2CCCCN1CCN(C2CCCCC2)CC1 (stereo not drawn) = ?
Out: > 700 nM

====

What pKi was measured for each of the following?
Experimental Target: Serotonin 3 (5-HT3) receptor (Rattus norvegicus, UniProt P35563+Q9JJ16)
Assay Info: In vitro binding affinity at serotonin 5-hydroxytryptamine 3 receptor in rat cortex by [3H]granisetron displacement.
pKi: −log10 of the molar value.

In: Quick one: pKi for COc1cccc2c1CCCC2CCCCCN1CCN(C2CCCCC2)CC1 (stereo unspecified) ?
Out: < 6.15

In: Quick one: pKi for c1ccc2c(CCCN3CCN(C4CCCCC4)CC3)cccc2c1 ?
Out: < 6.15

In: Quick one: pKi for COc1cccc2c1CCCC2CCCN1CCN(C2CCCCC2)CC1 (stereo unspecified) ?
Out: < 6.15

In: Quick one: pKi for c1ccc(CCN2CCCCC2)cc1 ?
Out: < 6.15

In: Quick one: pKi for COc1cccc2c1CCCC2CCCCCCN1CCN(C2CCCCC2)CC1 (stereo unspecified) ?
Out: < 6.15

In: Quick one: pKi for COc1ccc2c(c1)CCCC2CCCN1CCN(C2CCCCC2)CC1 (stereo unspecified) ?
Out: < 6.15

====

Experimental Target: D(2) dopamine receptor (Rattus norvegicus, UniProt P61169)
Sequence (P61169 whole entry): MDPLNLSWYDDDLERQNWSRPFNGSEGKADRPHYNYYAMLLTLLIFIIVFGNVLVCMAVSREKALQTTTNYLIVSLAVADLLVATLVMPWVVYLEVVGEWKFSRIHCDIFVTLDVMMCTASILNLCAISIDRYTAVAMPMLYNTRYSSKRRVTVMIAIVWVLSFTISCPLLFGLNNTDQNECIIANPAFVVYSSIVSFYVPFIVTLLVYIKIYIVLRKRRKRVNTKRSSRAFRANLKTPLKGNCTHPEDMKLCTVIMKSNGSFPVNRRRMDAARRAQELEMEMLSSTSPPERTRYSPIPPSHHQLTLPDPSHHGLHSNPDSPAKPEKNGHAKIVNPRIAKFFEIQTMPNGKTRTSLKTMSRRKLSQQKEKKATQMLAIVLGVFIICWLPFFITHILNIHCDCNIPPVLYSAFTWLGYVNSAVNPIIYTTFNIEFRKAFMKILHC
Assay Info: In vitro binding affinity at Dopamine receptor D2 in rat striatum by [3H]spiroperidol displacement.
What pKi was measured for each of the following?
// pKi here means minus log10 of the molar concentration (mol/L)

In: Quick one: pKi for COc1cccc2c1CCCC2CCCN1CCN(C2CCCCC2)CC1 (stereo not drawn) ?
Out: 6.22

In: Quick one: pKi for COc1cccc2c1CCCC2CCN1CCN(C2CCCCC2)CC1 (stereo not drawn) ?
Out: 5.79

In: Quick one: pKi for COc1cccc2c1CCCC2N1CCN(C2CCCCC2)CC1 (stereo not drawn) ?
Out: 5.94

In: Quick one: pKi for COc1cccc2c1CCCC2CCCCCCN1CCN(C2CCCCC2)CC1 (stereo not drawn) ?
Out: 5.46

In: Quick one: pKi for COc1cccc2c1CCCC2CCCCCN1CCN(C2CCCCC2)CC1 (stereo not drawn) ?
Out: 5.61

In: Quick one: pKi for COc1ccc2c(c1)C(CCCN1CCN(C3CCCCC3)CC1)CCC2 (stereo not drawn) ?
Out: 6.32

In: Quick one: pKi for COc1cccc2c1CCCC2CCCCN1CCN(C2CCCCC2)CC1 (stereo not drawn) ?
Out: 5.44

In: Quick one: pKi for COc1cccc2c1CCCC2CN1CCN(C2CCCCC2)CC1 (stereo not drawn) ?
Out: 5.37

====

Experimental Target: Sigma non-opioid intracellular receptor 1 (Homo sapiens)
Assay Info: Binding affinity ratio of sigma 1 receptor to that of sigma 2 receptor
Field: label. Allowed values: true (Ratio < 4) or false (Ratio >= 4).

In: Ratio strictly < 4 for this molecule? c1ccc(CCN2CCCCC2)cc1
Out: true

In: Ratio strictly < 4 for this molecule? c1ccc2c(CCCCCN3CCN(C4CCCCC4)CC3)cccc2c1
Out: false

In: Ratio strictly < 4 for this molecule? c1ccc2c(CCCN3CCN(C4CCCCC4)CC3)cccc2c1
Out: true

In: Ratio strictly < 4 for this molecule? COc1ccc2c(c1)C(CCCN1CCN(C3CCCCC3)CC1)CCC2 (stereo not given)
Out: false

In: Ratio strictly < 4 for this molecule? COc1cccc2c1CCCC2CCCCCN1CCN(C2CCCCC2)CC1 (stereo not given)
Out: false

====

Experimental Target: Sigma non-opioid intracellular receptor 1 (Homo sapiens) (UniProt Q99720)
Sequence (Q99720 whole entry): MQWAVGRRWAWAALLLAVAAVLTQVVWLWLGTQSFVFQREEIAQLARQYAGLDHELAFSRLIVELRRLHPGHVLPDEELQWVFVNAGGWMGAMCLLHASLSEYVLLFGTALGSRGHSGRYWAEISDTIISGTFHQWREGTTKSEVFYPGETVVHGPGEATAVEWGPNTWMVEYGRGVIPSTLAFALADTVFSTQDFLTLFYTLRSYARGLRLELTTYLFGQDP
Assay Info: Binding affinity ratio of sigma 2 receptor to that of sigma 1 receptor
Parameter Measured: Ratio

In: Quick one: Ratio for Oc1ccc2c(c1)CCCC2CCCN1CCN(C2CCCCC2)CC1 (centres undefined) ?
Out: 1.6

In: Quick one: Ratio for COc1cccc2c1CCCC2N1CCN(C2CCCCC2)CC1 (centres undefined) ?
Out: 20

In: Quick one: Ratio for COc1ccc2c(c1)CCCC2CCCN1CCN(C2CCCCC2)CC1 (centres undefined) ?
Out: 15

In: Quick one: Ratio for c1ccc2c(c1)CCCC2CCCN1CCN(C2CCCCC2)CC1 (centres undefined) ?
Out: 1.1

In: Quick one: Ratio for COc1cccc2c1CCCC2CN1CCN(C2CCCCC2)CC1 (centres undefined) ?
Out: 53

In: Quick one: Ratio for c1ccc2c(c1)CCCC2CCCCCN1CCN(C2CCCCC2)CC1 (centres undefined) ?
Out: 5.4

In: Quick one: Ratio for COc1cccc2c1CCCC2CCCCCCN1CCN(C2CCCCC2)CC1 (centres undefined) ?
Out: 34

In: Quick one: Ratio for COc1cccc2c1CCCC2CCN1CCN(C2CCCCC2)CC1 (centres undefined) ?
Out: 13

In: Quick one: Ratio for c1ccc2c(CCCCN3CCN(C4CCCCC4)CC3)cccc2c1 ?
Out: 139
